tested on: MRSA; experiment: Membrane depolarization with DiSC3(5) dye; assay type: cell-based, Staphylococcus aureus; conditions: up to the highest concentration tested
quantity: change in relative fluorescence unit (RFU), membrane depolarization

NCCCN(CCCCN(CCCN)C(=O)C(N)Cc1c[nH]c2ccccc12)C(=O)C(N)Cc1c[nH]c2ccccc12 (stereo not shown) [2a] : only minor increase
NCCCNCCCCNCCCNC(=O)C(Cc1c[nH]c2ccccc12)NC(=O)C(N)Cc1c[nH]c2ccccc12 (stereo not shown) [1a] : only minor increase
